Measured IC50 by item
- Target or system: Recombinant human DDR1 (Homo sapiens)
- Construct: Recombinant human DDR1 (2.5 nM; aa440-876 containing a GST tag)
- Sequence (Q08345 440-876 isoform Q08345-2): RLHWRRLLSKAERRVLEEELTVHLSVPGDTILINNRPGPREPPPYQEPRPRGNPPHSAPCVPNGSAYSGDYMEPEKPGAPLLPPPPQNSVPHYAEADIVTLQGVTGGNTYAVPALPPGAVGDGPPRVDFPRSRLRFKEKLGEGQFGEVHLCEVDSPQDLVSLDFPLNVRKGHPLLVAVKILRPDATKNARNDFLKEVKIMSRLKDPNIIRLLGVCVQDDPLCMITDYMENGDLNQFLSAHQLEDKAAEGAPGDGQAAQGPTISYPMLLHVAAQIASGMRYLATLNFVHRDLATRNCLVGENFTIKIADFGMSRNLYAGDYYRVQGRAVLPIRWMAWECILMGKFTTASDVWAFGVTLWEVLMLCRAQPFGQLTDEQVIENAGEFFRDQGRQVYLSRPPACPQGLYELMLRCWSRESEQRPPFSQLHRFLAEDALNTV
- Method description: LanthaScreen Eu Kinase Binding Assay, DDR1
- Condition notes: recombinant human DDR1 (2.5 nM; aa440-876, GST tag), Kinase Tracer 178 5 nM, time-resolved fluorescence, at least two independent replicates; read-out: DDR1 pIC50 (converted)
- Method: DDR1 and DDR2 Biochemical Assay Method The capacity of compounds to bind to DDR1 and DDR2 was quantified using a LanthaScreen Eu Kinase Binding Assay. […] Following 60-minute incubation at room temperature, time-resolved fluorescence was measured on a BMG Labtech PHERAstar plate reader. […] Data was analysed using a four-parameter logistic model to calculate IC50 values, with at least two independent replicates were performed for each compound.

// known answers, use as guide
Cn1ncc2cc(Nc3cccc4ccn(CC(=O)Nc5cncc(C(F)(F)F)c5)c(=O)c34)cnc21 [Example 99] = 10 to 100 nM
CC(NC(=O)Cn1ccc2cccc(Nc3ccc4c(cnn4C)c3)c2c1=O)C(F)(F)F (stereo not drawn) [Example 12] = 10 to 100 nM

Incoming: Form: Entry = Cn1ncc2cc(Nc3cccc4ccn(CC(=O)Nc5cnoc5)c(=O)c34)ccc21 [Example 37] | System = Recombinant human DDR1 (Homo sapiens) | IC50 = ____
Outgoing: < 10 nM

Incoming: Record O=C(Cn1ccc2cccc(Nc3ccc4cn[nH]c4c3)c2c1=O)NCC(F)(F)F [Example 2] : what is its IC50 with Recombinant human DDR1 (Homo sapiens)?
Outgoing: 10 to 100 nM

Incoming: Recall the recorded IC50 for Cc1cc(C)n(C(=O)Cn2ccc3cccc(Nc4ccc5c(cnn5C)c4)c3c2=O)n1 [Example 98] with Recombinant human DDR1 (Homo sapiens) and state it.
Outgoing: 10 to 100 nM

Incoming: Notebook: pull reported IC50 for Recombinant human DDR1 (Homo sapiens), entry COc1ccc(NC(=O)Cn2ccc3cccc(Nc4ccc5c(cnn5C)c4)c3c2=O)cc1 [Example 55]
Outgoing: 10 to 100 nM

---

Entries and their IC50
- Target or system: Recombinant human DDR2 (Homo sapiens)
- Construct: DDR2 (1.75 nM; aa427-855 containing a GST tag)
- Sequence (Q16832 427-855): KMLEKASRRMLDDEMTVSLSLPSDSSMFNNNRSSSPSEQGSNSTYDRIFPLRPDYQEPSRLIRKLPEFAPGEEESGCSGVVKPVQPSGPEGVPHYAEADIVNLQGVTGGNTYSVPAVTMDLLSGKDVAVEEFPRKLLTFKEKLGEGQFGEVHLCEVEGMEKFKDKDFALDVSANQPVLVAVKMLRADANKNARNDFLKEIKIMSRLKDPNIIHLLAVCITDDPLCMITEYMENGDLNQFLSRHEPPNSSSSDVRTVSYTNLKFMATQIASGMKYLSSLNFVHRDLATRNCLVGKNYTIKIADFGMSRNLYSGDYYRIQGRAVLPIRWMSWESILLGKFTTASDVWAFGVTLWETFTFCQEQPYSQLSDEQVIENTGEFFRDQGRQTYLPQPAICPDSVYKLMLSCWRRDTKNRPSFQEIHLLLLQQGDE
- Method description: LanthaScreen Eu Kinase Binding Assay, DDR2
- Condition notes: recombinant human DDR2 (1.75 nM; aa427-855, GST tag), Kinase Tracer 178 10 nM, time-resolved fluorescence, at least two independent replicates; read-out: DDR2 pIC50 (converted)

Examples from the recorded data:
C[C@@H]1COC[C@H](C)N1C(=O)Cn1ccc2cccc(Nc3ccc4c(cnn4C)c3)c2c1=O = ≥ 1000 nM
CC(=O)C1CCCCN1C(=O)Cn1ccc2cccc(Nc3ccc4c(cnn4C)c3)c2c1=O (centres unmarked) = ≥ 1000 nM
CN(C)Cc1cccc(NC(=O)Cn2ccc3cccc(Nc4ccc5c(cnn5C)c4)c3c2=O)c1 = 100 to 1000 nM
Cn1ncc2cc(Nc3cccc4ccn(CC(=O)N5C6CCC5COC6)c(=O)c34)ccc21 = ≥ 1000 nM
O=C(Cn1ccc2cccc(Nc3cc(Cl)c4[nH]ncc4c3)c2c1=O)NCC(F)(F)F = 10 to 100 nM

Incoming: Name the reported IC50 value associated with the compound Cn1ncc2cc(Nc3cccc4ccn(CC(=O)N5CCC[C@H]5C(F)(F)F)c(=O)c34)cnc21
Outgoing: 100 to 1000 nM

Incoming: Which IC50 value is on record for Cn1ncc2cc(Nc3cccc4ccn(CC(=O)Nc5cccc(C(C)(C)O)c5)c(=O)c34)ccc21 ?
Outgoing: 10 to 100 nM

Incoming: Which IC50 is reported for this compound? CC(C)CNC(=O)Cn1ccc2cccc(Nc3ccc4c(cnn4C)c3)c2c1=O
Outgoing: 100 to 1000 nM

Incoming: Fill in: IC50 of O=C(Cn1ccc2cccc(Nc3ccc4[nH]ncc4c3)c2c1=O)NCC(F)(F)F is ___
Outgoing: ≥ 1000 nM
